Tested on: MCF7 breast
Assay: NCI-60 one-dose screen, 48 h
Details: 10 µM unless noted
About 83,000 compounds went through this panel and 20% of them were active in at least one assay; those are over-represented in the sample as a whole. The source made the active and inactive calls. The calls were made as follows: active = growth percent below 10; inactive = the rest.
Outcome codes: active, inactive

compound="CC(C)=NOC(C)C(=O)O (centres undefined)" class=inactive
compound=O=[N+]([O-])c1ccc(N/N=C/C2CCCCCC2)c([N+](=O)[O-])c1 class=inactive
compound=COc1ccc(/C=N/Nc2nc3ccccc3s2)cc1 class=inactive
compound="CC1CCC(=O)N1c1ccc(N)cc1 (centres undefined)" class=inactive
compound=Nc1ccc2ccc(NS(=O)(=O)N3CCCCC3)cc2c1 class=inactive
compound=Cn1c(-c2ccccc2)cc(=O)cc1-c1ccccc1 class=inactive
compound=Cc1c(Cl)c(C)c(Cc2c(C)c(Cl)c(C)c(Cl)c2O)c(O)c1Cl class=active
compound="CCOC(=O)c1ccc(N2C(=O)C(Cl)(c3ccccc3)C2c2ccco2)cc1 (centres undefined)" class=inactive
compound=CC(=O)Nc1ccc(OC(C)=O)cc1 class=inactive
compound=COc1ccc(/C=N/NC(N)=S)cc1 class=inactive
compound=C/C=C/C(=O)OCCCCCCCCCCCC class=inactive
compound=CCOC(=N)c1ccc(C(=N)OCC)cc1 class=inactive
compound=Cc1c(Cl)cc(Cl)c(N)c1Cl class=inactive
compound=Nc1c(Cl)cc2c(c1Br)C(=O)c1ccccc1C2=O class=inactive
compound="O=C1C=CC(n2cc(F)c(=O)[nH]c2=O)O1 (centres undefined)" class=inactive
compound="Clc1ccc2c(c1)N(C1CCCN(Cc3ccccc3)C1)c1ccccc1S2 (centres undefined)" class=inactive
compound=COc1ccc(CCN=Cc2ccc(Cl)cc2)cc1OC class=inactive
compound="O=C(O)C1CSCN1 (centres undefined)" class=inactive
compound=CCN(C)c1ccccc1 class=inactive
compound="CC1NC(C)c2ccc3ccccc3c2O1 (centres undefined)" class=inactive
compound=Cc1ccc([N+](=O)[O-])cc1Br class=inactive
compound=CCOC(=O)C1=CC(=O)CC(C)(C)O1 class=inactive
compound=Cc1cc(Cl)nc(Nc2ccccc2)n1 class=inactive
compound=CCOC(C)=N class=inactive
compound=CC(=O)Nc1cscc1NC(C)=O class=inactive
compound=CC(=O)Nc1ccc2oc(=O)ccc2c1 class=inactive
compound=COc1ccc(CCO)cc1 class=inactive
compound=Cc1cc(=NO)cc(C)n1O class=inactive
compound=OCCCc1ccccc1 class=inactive

###

System: MCF7 breast
Experiment: NCI-60 one-dose screen, 48 h (100 = growth as untreated, 0 = no growth, -100 = all killed)
Conditions: 10 µM unless noted
This is part of a sample that, as a whole, favours compounds with a hit. Of some 83,000 tested, about 20% had one in any assay.
Please use condition met whenever growth is not below 90%, and condition not met whenever it is.

molecule=COC(=O)c1nc(N)nc(C(=O)OC)c1C(=O)c1cccc2ccccc12 class="condition met"
molecule="O=C1C2=C(Nc3cc(Cl)ccc3N2)OC1c1c[nH]c2ccc(COc3ccccc3)cc12 (configuration not stated)" class="condition not met"
molecule=C/C=C(/C(=O)NC(N)=O)C(C)C class="condition met"
molecule="O=C(N=C1C(=O)C2(CCCCC2)C2(N=C(c3ccccc3)OC2=O)C12CCCCC2)c1ccccc1 (configuration not stated)" class="condition not met"
molecule=COc1ccc(S(=O)(=O)c2ccc(F)cc2)cc1 class="condition met"
molecule=O=S(=O)(O)c1ccc2cc(O)ccc2c1 class="condition met"
molecule=COCCNC(C)=O class="condition met"
molecule=CC(=O)C[n+]1ccccc1Sc1ccc(Cl)cc1 class="condition not met"
molecule=Cc1cnc(N)s1 class="condition met"
molecule=CCCCCCCCCCCCCCCCC(=O)O class="condition met"

###

System: OVCAR-8 ovarian
Experiment: NCI-60 one-dose screen, 48 h (100 = growth as untreated, 0 = no growth, -100 = all killed)
Settings: 10 µM unless noted
Compounds without any hit were thinned out: in the full panel of roughly 83,000, 20% have a hit.
readout type: growth (%)

compound=COC(=O)c1ccccc1Cl readout_type=growth unit_spec=% recorded_result=102
compound=O=C1C=CC(=O)N1Cc1ccco1 readout_type=growth unit_spec=% recorded_result=85.6
compound="CCC(C)NC(=O)c1ccccc1C (stereo not given)" readout_type=growth unit_spec=% recorded_result=102
compound="CC(NC(=O)CCl)c1ccccc1 (stereo not given)" readout_type=growth unit_spec=% recorded_result=105
compound="CC(C)=NOC(C)C(=O)O (stereo not given)" readout_type=growth unit_spec=% recorded_result=90.2
compound="CC(C)(C)C1CCC(=NO)CC1 (stereo not given)" readout_type=growth unit_spec=% recorded_result=91.9
compound=CN(C)C(=N)N=C(N)N readout_type=growth unit_spec=% recorded_result=105
compound=CC(=O)Nc1ccc2oc(=O)ccc2c1 readout_type=growth unit_spec=% recorded_result=106
compound="Nc1ccccc1SC1CC(=O)N(c2ccc(I)cc2)C1=O (stereo not given)" readout_type=growth unit_spec=% recorded_result=87.8
compound=CCCC(=O)Oc1ccc2ccccc2c1 readout_type=growth unit_spec=% recorded_result=94.6
compound=O=C(O)Cc1cc(=O)[nH]n(-c2ccccc2)c1=O readout_type=growth unit_spec=% recorded_result=90
compound=CC1=CC(=O)c2cccc(NC3=NCCO3)c21 readout_type=growth unit_spec=% recorded_result=102
compound=CCc1ccc(OC(=O)CCl)cc1 readout_type=growth unit_spec=% recorded_result=101
compound=O=c1[nH]c(=O)c2[nH]c(=O)[nH]c2[nH]1 readout_type=growth unit_spec=% recorded_result=102
compound=Oc1ccc(O)c(-c2ccccc2)c1 readout_type=growth unit_spec=% recorded_result=62.9

###

Test system: DU-145 prostate
Assay: NCI-60 one-dose screen, 48 h
Conditions: 10 µM unless noted
Compounds without any hit were thinned out: in the full panel of roughly 83,000, 20% have a hit. Calls of active or inactive are those of the source. The calls were made as follows: active = growth percent below 10; inactive = the rest.
Labels: t (active), f (inactive)

compound="O=C(N=C1C(=O)C2(CCCCC2)C2(N=C(c3ccccc3)OC2=O)C12CCCCC2)c1ccccc1 (configuration not stated)" class=f
compound=NC(=O)Cc1nc(O)cc(=O)[nH]1 class=f
compound=N#Cc1c(N)nc2c(c(-c3ccc(Cl)cc3)nn2-c2ccccc2)c1C#N class=f
compound=CC(C)(C)OC(=O)CC1(O)CCCCC1 class=f
compound=COC(=O)c1cc(C(=O)OC)cc([N+](=O)[O-])c1 class=f
compound=O=C(c1ccccc1)C1(Br)CCCCC1 class=f
compound="O=C1C2=C(Nc3cc(Cl)ccc3N2)OC1c1c[nH]c2ccc(COc3ccccc3)cc12 (configuration not stated)" class=f
compound=COC(=O)c1nc(=S)[nH]c(C(=O)OC)c1C(=O)c1ccccc1 class=f
compound=COc1ccc(CCNC(=S)NN)cc1OC class=f
compound=Nc1ccc(Cl)c(S(=O)(=O)O)c1 class=f
compound=CC(=O)C[n+]1ccccc1Sc1ccc(Cl)cc1 class=f
compound=CC(=O)Oc1cc(C)c(OC(C)=O)c(C)c1C class=f
compound=COc1ccc(CCN=Cc2ccc(Cl)cc2)cc1OC class=f
compound=N#CC(=S)Nc1ccc(Cl)c(Cl)c1 class=f
compound=COc1ccc(CCl)c(C)c1OC class=f
compound="COC(=O)C(Cc1cn(C(C)=O)c2ccccc12)P(=O)(OC)OC (configuration not stated)" class=f
compound=O=C1C=CC(=O)N1Cc1ccco1 class=t
compound=Cc1cc(=NO)cc(C)n1O class=f
compound=COC(=O)c1nc(N)nc(C(=O)OC)c1C(=O)c1ccc(F)cc1 class=f
compound=CCOCCC(=O)O class=f
compound=CCOC(=O)c1ccc(C(=N)N)cc1 class=f
compound=CC(=O)Nc1ccc2oc(=O)ccc2c1 class=f
compound=CC(=O)/C(N=Nc1ccc(S(=O)(=O)c2ccc(N=N/C(C(C)=O)=C(/C)O)cc2)cc1)=C(\C)O class=f
compound="COCCCNC1=C(C#N)C(=O)NC(c2cccs2)S1 (configuration not stated)" class=f
compound="Clc1ccc2c(c1)N(C1CCCN(Cc3ccccc3)C1)c1ccccc1S2 (configuration not stated)" class=f
compound=CC(C)(C)OC(=O)c1ccc(NCc2cc(O)ccc2O)cc1 class=f
compound="CC1CC(O)CC(C)(C)C1.CC1CC(O)CC(C)(C)C1.CC1CC(O)CC(C)(C)C1.CC1CC(O)CC(C)(C)C1.[Ti] (configuration not stated)" class=f
compound=CCCC(=O)Oc1ccc(CC)cc1 class=f
compound=O=COCCCc1ccccc1 class=f
compound=Clc1ccc2sc(-c3ccccc3)nc2c1 class=f
compound=NCCCCCC(=O)O class=f
compound=COc1ccc(S(=O)(=O)c2ccc(F)cc2)cc1 class=f
compound=ON=C(C1CCCCC1)C1CCCCC1 class=f
compound=COC(=O)c1nc(N)nc(C(=O)OC)c1C(=O)c1cccc2ccccc12 class=f
compound=Nc1c(Cl)cc2c(c1Br)C(=O)c1ccccc1C2=O class=f
compound=COC(=O)c1ccccc1Cl class=f
compound=CCOC(=N)c1ccc(C(=N)OCC)cc1 class=f
compound="CC(O)CCNC(c1ccccc1)C(O)c1ccccc1 (configuration not stated)" class=f
compound=Cc1ccc(S(=O)(=O)n2ccnc2)cc1 class=f
compound=CCCC(=O)Oc1ccc2ccccc2c1 class=f
compound="Cc1ccc(NC(=S)N/C=C(\\c2ccccc2)S(=O)Cc2ccccc2)c(C)c1 (configuration not stated)" class=f
compound="Nc1ccccc1SC1CC(=O)N(c2ccc(I)cc2)C1=O (configuration not stated)" class=f
